Assign Inhibition rate of tumor IR (tumor weight) to each entry below.
Test system: subcutaneously transplanted lung cancer H1975 tumors
Experiment: In vivo efficacy in inhibiting human lung cancer H1975 xenograft
Set-up: species or system BALB/c nude mice
Conditions: 30.0 mg/kg ig qd × 14 d, tumor weight on day 14 vs negative control
Just the number please, in %, no unit attached.

Recorded Inhibition rate of tumor IR (tumor weight) for C=CC(=O)Nc1cccc(Nc2nc(Nc3ccc(N4CCN(C(C)=O)CC4)cc3OC)ncc2C(F)(F)F)c1 [Compound 1686, reference compound] , please?
50.09

Recorded Inhibition rate of tumor IR (tumor weight) for C=CC(=O)Nc1cccc(Nc2nc(Nc3cnc(N4CCN(C)CC4)cc3OC)ncc2C(F)(F)F)c1 [ES-075] , please?
37.27

Recorded Inhibition rate of tumor IR (tumor weight) for C=CC(=O)Nc1cccc(Nc2nc(Nc3ccc(N4CCN(C)CC4)nc3OC)ncc2C(F)(F)F)c1 [ES-072] , please?
79.42

Recorded Inhibition rate of tumor IR (tumor weight) for C=CC(=O)Nc1cccc(Nc2nc(Nc3ccc(N4CCN(C(C)=O)CC4)nc3OC)ncc2C(F)(F)F)c1 [ES-071] , please?
50.93

###

System: human melanoma cell A375
Experiment: Effect of compounds on proliferation of tumor cells (MTT), A375
Format: cell-based
Conditions: A-375, 72 hours
metric: pIC50
Please note pIC50 is a logarithmic value: minus log10 of concentration in mol/L. Answer with that number alone.

Recorded pIC50 for "C=CC(=O)Nc1cccc(Nc2nc(Nc3ccc(N4CCNCC4)nc3OC)ncc2C(F)(F)F)c1" , please?
5.62

Recorded pIC50 for "C=CC(=O)Nc1cccc(Nc2nc(Nc3ccc(N4CCN(S(=O)(=O)C(C)C)CC4)nc3OC)ncc2C(F)(F)F)c1" , please?
4.11

Recorded pIC50 for "C=CC(=O)Nc1cccc(Nc2nc(Nc3ccc(N4CCN(C(C)=O)CC4)nc3OC)ncc2C(F)(F)F)c1" , please?
5.65

Recorded pIC50 for C=CC(=O)Nc1cccc(Nc2nc(Nc3ccc(NC4CCN(C(C)=O)C4)nc3OC)ncc2C(F)(F)F)c1 (stereo not shown) , please?
5.05

###

Test system: human melanoma cell A375
Assay: Effect of compounds on proliferation of tumor cells (MTT), A375
Format: cell-based
Settings: A-375, 72 hours
metric: pIC50
Please note pIC50 is a logarithmic value: minus log10 of concentration in mol/L. Answer with that number alone.

Recorded pIC50 for C=CC(=O)Nc1cccc(Nc2nc(Nc3cnc(N4CCN(C(=O)OC(C)(C)C)CC4)cc3OC)ncc2C(F)(F)F)c1 [ES-073] , please?
4.82

Recorded pIC50 for C=CC(=O)Nc1cccc(Nc2nc(Nc3ccc(N4CCN(C(=O)COC(C)=O)CC4)nc3OC)ncc2C(F)(F)F)c1 [ES-140] , please?
5.19

Recorded pIC50 for C=CC(=O)Nc1cccc(Nc2nc(Nc3cnc(N4CCN(C(C)=O)CC4)cc3OC)ncc2C(F)(F)F)c1 [ES-074] , please?
4.99

Recorded pIC50 for C=CC(=O)Nc1cccc(Nc2nc(Nc3ccc(N4CCN(S(=O)(=O)CC)CC4)nc3OC)ncc2C(F)(F)F)c1 [ES-143] , please?
5.69

Recorded pIC50 for C=CC(=O)Nc1cccc(Nc2nc(Nc3ccc(NC4CCN(CCF)C4)nc3OC)ncc2C(F)(F)F)c1 (stereo not shown) [ES-124] , please?
5.20

Recorded pIC50 for C=CC(=O)Nc1cccc(Nc2nc(Nc3cnc(N4CCN(C)CC4)nc3OC)ncc2C(F)(F)F)c1 [ES-161] , please?
5.10

Recorded pIC50 for C=CC(=O)Nc1cccc(Nc2nc(Nc3ccc(N4CCN(S(C)(=O)=O)CC4)nc3OC)ncc2C(F)(F)F)c1 [ES-142] , please?
5.36

Numbers sourced from patent US10710979B2.
